- targetOrSystem: 5-hydroxytryptamine receptor 2C (Homo sapiens)
- Sequence (P28335 whole entry): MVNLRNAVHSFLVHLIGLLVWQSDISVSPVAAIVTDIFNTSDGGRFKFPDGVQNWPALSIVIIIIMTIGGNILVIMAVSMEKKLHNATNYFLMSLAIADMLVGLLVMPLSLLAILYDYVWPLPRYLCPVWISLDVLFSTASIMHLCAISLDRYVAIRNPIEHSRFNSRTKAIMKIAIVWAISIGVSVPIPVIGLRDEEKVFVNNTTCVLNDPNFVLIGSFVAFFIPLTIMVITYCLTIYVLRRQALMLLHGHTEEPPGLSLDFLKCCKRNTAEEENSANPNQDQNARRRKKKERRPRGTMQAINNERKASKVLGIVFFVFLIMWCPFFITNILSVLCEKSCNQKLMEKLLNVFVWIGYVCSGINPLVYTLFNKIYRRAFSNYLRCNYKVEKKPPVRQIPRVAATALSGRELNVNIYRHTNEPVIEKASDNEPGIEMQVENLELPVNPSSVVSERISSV
- assayOverview: Displacement of [3H]Mesulergine from 5-HT2C receptor (unknown origin) assessed as inhibition constant incubated for 90 mins by MicroBeta scintillation counting method
propertyMeasured: Ki (nM)

# compound, targetOrSystem, outputUnit, val
records = [
    ("CCC(C)Oc1cc2c(cc1OC)-c1c(OC)c(OC)cc3c1[C@H](C2)N(C)CC3 (some centres not stated)", "5-hydroxytryptamine receptor 2C (Homo sapiens)", "nM", 238),
    ("CCCCCOc1cc2c3c(c1OC)-c1cc(OC)c(OC)cc1C[C@@H]3N(C)CC2", "5-hydroxytryptamine receptor 2C (Homo sapiens)", "nM", 40),
    ("CCCCC(C)Oc1cc2c3c(c1OC)-c1cc(OC)c(OC)cc1C[C@@H]3N(C)CC2 (some centres not stated)", "5-hydroxytryptamine receptor 2C (Homo sapiens)", "nM", 72),
    ("COc1cc2c(cc1OCc1ccccc1)C[C@H]1c3c(cc(OC)c(OC)c3-2)CCN1C", "5-hydroxytryptamine receptor 2C (Homo sapiens)", "nM", 179),
    ("COc1cc2c(cc1OC(C)C)C[C@H]1c3c(cc(OC)c(OC)c3-2)CCN1C", "5-hydroxytryptamine receptor 2C (Homo sapiens)", "nM", 559),
    ("CCCCC(C)Oc1cc2c(cc1OC)-c1c(OC)c(OC)cc3c1[C@H](C2)N(C)CC3 (some centres not stated)", "5-hydroxytryptamine receptor 2C (Homo sapiens)", "nM", 274),
    ("C=CCOc1cc2c3c(c1OC)-c1cc(OC)c(OC)cc1C[C@@H]3N(C)CC2", "5-hydroxytryptamine receptor 2C (Homo sapiens)", "nM", 50),
]

----------
- Species on record: Homo sapiens
- assayOverview: Selectivity ratio of Ki for 5-HT2A receptor (unknown origin) to Ki for 5-HT2B receptor (unknown origin)
Label rule, in plain words: Ratio Ki of 4 and up is t, under 4 is f.

# molecule, labelClass
data = [
    ("CCCCCCOc1cc2c(cc1OC)-c1c(OC)c(OC)cc3c1[C@H](C2)N(C)CC3", "t"),
    ("CCCCOc1cc2c3c(c1OC)-c1cc(OC)c(OC)cc1C[C@@H]3N(C)CC2", "t"),
    ("COc1cc2c(cc1OCC1CC1)C[C@H]1c3c(cc(OC)c(OC)c3-2)CCN1C", "t"),
    ("COc1cc2c(cc1OCCF)C[C@H]1c3c(cc(OC)c(OC)c3-2)CCN1C", "t"),
    ("COc1cc2c(cc1OC)-c1c(OC)c(OC(C)C)cc3c1[C@H](C2)N(C)CC3", "f"),
    ("CCCC(C)Oc1cc2c3c(c1OC)-c1cc(OC)c(OC)cc1C[C@@H]3N(C)CC2 (some centres not stated)", "t"),
    ("C=CCOc1cc2c(cc1OC)-c1c(OC)c(OC)cc3c1[C@H](C2)N(C)CC3", "t"),
    ("CCCCCOc1cc2c(cc1OC)-c1c(OC)c(OC)cc3c1[C@H](C2)N(C)CC3", "t"),
    ("CCCCCCOc1cc2c3c(c1OC)-c1cc(OC)c(OC)cc1C[C@@H]3N(C)CC2", "f"),
    ("COc1cc2c(cc1OCc1ccc(Br)cc1)C[C@H]1c3c(cc(OC)c(OC)c3-2)CCN1C", "t"),
    ("CCCCC(C)Oc1cc2c3c(c1OC)-c1cc(OC)c(OC)cc1C[C@@H]3N(C)CC2 (some centres not stated)", "f"),
    ("CCOc1cc2c(cc1OC)-c1c(OC)c(OC)cc3c1[C@H](C2)N(C)CC3", "t"),
    ("CCCC(C)Oc1cc2c(cc1OC)-c1c(OC)c(OC)cc3c1[C@H](C2)N(C)CC3 (some centres not stated)", "t"),
    ("COc1cc2c(cc1OC)-c1c(OC)c(OCc3ccc(Br)cc3)cc3c1[C@H](C2)N(C)CC3", "f"),
    ("COc1cc2c(cc1OC(C)C)C[C@H]1c3c(cc(OC)c(OC)c3-2)CCN1C", "t"),
    ("COc1cc2c(cc1OC)-c1c(OC)c(OCC3CC3)cc3c1[C@H](C2)N(C)CC3", "t"),
    ("COc1cc2c(cc1OCc1ccccc1)C[C@H]1c3c(cc(OC)c(OC)c3-2)CCN1C", "f"),
]

----------
- Organism: Homo sapiens
- assayOverview: Selectivity ratio of Ki for 5-HT2B receptor (unknown origin) to Ki for 5-HT2C receptor (unknown origin)

# molecule, Ratio Ki
records = [
    ("CCCCOc1cc2c(cc1OC)-c1c(OC)c(OC)cc3c1[C@H](C2)N(C)CC3", 0.1),
    ("CCOc1cc2c(cc1OC)-c1c(OC)c(OC)cc3c1[C@H](C2)N(C)CC3", 0.2),
    ("COc1cc2c(cc1OCc1ccccc1)C[C@H]1c3c(cc(OC)c(OC)c3-2)CCN1C", 1.1),
    ("C=CCOc1cc2c(cc1OC)-c1c(OC)c(OC)cc3c1[C@H](C2)N(C)CC3", 0.1),
    ("COc1cc2c(cc1OC)-c1c(OC)c(OC3CCCCC3)cc3c1[C@H](C2)N(C)CC3", 0.8),
    ("CCCCCCOc1cc2c(cc1OC)-c1c(OC)c(OC)cc3c1[C@H](C2)N(C)CC3", 0.1),
    ("COc1cc2c(cc1OC(C)C)C[C@H]1c3c(cc(OC)c(OC)c3-2)CCN1C", 0.1),
    ("CCCC(C)Oc1cc2c3c(c1OC)-c1cc(OC)c(OC)cc1C[C@@H]3N(C)CC2 (stereo partly specified)", 0.7),
    ("COc1cc2c(cc1OC)-c1c(OC)c(OC(C)C)cc3c1[C@H](C2)N(C)CC3", 0.8),
    ("CCCCC(C)Oc1cc2c(cc1OC)-c1c(OC)c(OC)cc3c1[C@H](C2)N(C)CC3 (stereo partly specified)", 0.1),
    ("COc1cc2c(cc1OCCF)C[C@H]1c3c(cc(OC)c(OC)c3-2)CCN1C", 0.1),
]
